biological target: recombinant hMAO-A (Homo sapiens, UniProt P21397); assay: hMAO-A inhibitory assay
Sequence (P21397 whole entry): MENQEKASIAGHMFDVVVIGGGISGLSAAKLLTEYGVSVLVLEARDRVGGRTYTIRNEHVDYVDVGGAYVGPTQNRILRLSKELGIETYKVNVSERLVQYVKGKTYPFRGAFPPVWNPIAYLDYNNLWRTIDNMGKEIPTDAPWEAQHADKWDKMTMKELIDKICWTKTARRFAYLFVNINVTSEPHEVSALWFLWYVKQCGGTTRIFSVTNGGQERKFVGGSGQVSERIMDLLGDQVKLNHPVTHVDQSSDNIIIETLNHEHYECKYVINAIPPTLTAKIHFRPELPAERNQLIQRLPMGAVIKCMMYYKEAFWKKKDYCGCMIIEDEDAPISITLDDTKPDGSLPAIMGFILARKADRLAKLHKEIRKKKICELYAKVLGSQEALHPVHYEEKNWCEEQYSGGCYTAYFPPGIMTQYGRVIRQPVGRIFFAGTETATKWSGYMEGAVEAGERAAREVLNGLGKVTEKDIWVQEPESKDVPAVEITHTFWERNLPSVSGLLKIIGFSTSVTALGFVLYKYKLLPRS
pIC50: −log10 of the molar value.
Value kind: pIC50

{"columns": ["Chemical structure", "Value kind", "Assay result"],
 "data": [
  ["C=C(C)[C@H](CC=C(C)C)Cc1c(O)cc(OC)c2c1O[C@H](c1ccc(O)cc1O)CC2=O", "pIC50", 3.73]
]}

----------
biological target: hD4 receptor (CHO-D4R cells) (Homo sapiens, UniProt P21917); test: Functional GPCR assay, cAMP level
Sequence (P21917 whole entry): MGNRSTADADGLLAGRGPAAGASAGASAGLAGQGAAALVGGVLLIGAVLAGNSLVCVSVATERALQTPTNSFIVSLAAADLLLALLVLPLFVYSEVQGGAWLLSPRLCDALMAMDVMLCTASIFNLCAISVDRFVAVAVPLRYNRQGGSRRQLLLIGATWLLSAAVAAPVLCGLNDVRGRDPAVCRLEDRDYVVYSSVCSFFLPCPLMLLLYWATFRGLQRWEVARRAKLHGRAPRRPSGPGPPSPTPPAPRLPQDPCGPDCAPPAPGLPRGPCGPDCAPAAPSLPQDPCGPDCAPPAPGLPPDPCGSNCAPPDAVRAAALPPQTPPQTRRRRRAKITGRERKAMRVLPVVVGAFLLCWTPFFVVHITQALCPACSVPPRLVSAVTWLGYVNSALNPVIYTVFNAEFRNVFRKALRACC
pEC50: −log10 of the molar value.

{"columns": ["Chemical structure", "pEC50"],
 "data": [
  ["C=C(C)[C@H](CC=C(C)C)Cc1c(O)cc(OC)c2c1O[C@H](c1ccc(O)cc1O)CC2=O", 4.15]
]}
